- experimentalTarget: NanoLuc-hACKR3 (Homo sapiens)
- Construct: membrane preparation)
- Sequence (P25106 whole entry): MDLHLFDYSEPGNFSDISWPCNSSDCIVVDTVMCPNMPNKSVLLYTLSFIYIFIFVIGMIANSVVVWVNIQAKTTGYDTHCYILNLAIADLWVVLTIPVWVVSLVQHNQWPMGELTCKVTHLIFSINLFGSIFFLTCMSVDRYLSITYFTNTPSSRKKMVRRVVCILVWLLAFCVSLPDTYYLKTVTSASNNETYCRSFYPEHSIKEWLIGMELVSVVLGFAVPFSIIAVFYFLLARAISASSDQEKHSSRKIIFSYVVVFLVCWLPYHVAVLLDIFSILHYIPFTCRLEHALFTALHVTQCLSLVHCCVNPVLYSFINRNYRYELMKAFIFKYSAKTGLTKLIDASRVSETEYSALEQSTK
- testName: NanoBRET binding study (displacement of fluorescently labelled CXCL12)
- conditionInfo: displacement of 0.3 nM CXCL12-AF647; membranes of HEK293T cells expressing NanoLuc-ACKR3; 1 hour incubation; read-out: Affinity
measuredAttribute: Ki

Any idea what Ki was measured for O=C(NCC1CCN(C2CCCC2)CC1)c1cc(-c2ccc(F)cc2F)on1 ?
100 to 1000 nM

Any idea what Ki was measured for O=C(NCC1CCN(C/C=C/c2ccccc2)CC1)c1csc(-c2ccc(F)cc2F)n1 ?
1000 to 10000 nM

Any idea what Ki was measured for O=C(NCC1CCN(C/C=C/c2ccccc2)CC1)c1ncc(-c2ccc(F)cc2F)s1 ?
≤ 100 nM

Any idea what Ki was measured for O=C(NCC1CCN(C/C=C/c2ccccc2)CC1)c1ncc(-c2ccc(F)cc2F)o1 ?
100 to 1000 nM

Any idea what Ki was measured for NS(=O)(=O)c1ccc(CN2CCC(CNC(=O)c3cc(-c4ccc(F)cc4F)on3)CC2)cc1 ?
100 to 1000 nM

Any idea what Ki was measured for O=C(NCC1CCN(C/C=C/c2ccccc2)CC1)c1cc(-c2ccc(F)cc2F)on1 ?
≤ 100 nM

Any idea what Ki was measured for O=C(NCC1CCN(C/C=C/c2ccccc2)CC1)c1nnn(-c2ccc(F)cc2F)n1 ?
100 to 1000 nM

Any idea what Ki was measured for O=C(NCC1CCN(CCCc2ccccc2)CC1)c1cc(-c2ccc(F)cc2F)on1 ?
≤ 100 nM

* * *

# pKi annotations
- experimentalTarget: NanoLuc-hACKR3 (Homo sapiens)
- Construct: membrane preparation)
- testName: NanoBRET binding study (displacement of fluorescently labelled CXCL12)
- conditionInfo: displacement of 0.3 nM CXCL12-AF647; membranes of HEK293T cells expressing NanoLuc-ACKR3; 1 hour incubation; read-out: Affinity
pKi: −log10 of the molar value.

Solved cases (10 shown):
INSERT INTO measurements (testsmiles, measuredattribute, result) VALUES
  ('COc1ccccc1CN1CCC(CNC(=O)c2cc(-c3ccc(F)cc3F)on2)CC1', 'pKi', '≥ 7.00'),
  ('O=C(NCC1CCN(c2ccccc2)CC1)c1cc(-c2ccc(F)cc2F)on1', 'pKi', '< 5.00'),
  ('O=C(NCC1CCN(Cc2ccccc2)CC1)c1cc(-c2ccc(F)cc2F)on1', 'pKi', '6.00 to 7.00'),
  ('COc1cccc(CN2CCC(CNC(=O)c3cc(-c4ccc(F)cc4F)on3)CC2)c1', 'pKi', '≥ 7.00'),
  ('O=C(NCC1CCN(S(=O)(=O)C2CC2)CC1)c1cc(-c2ccc(F)cc2F)on1', 'pKi', '< 5.00'),
  ('O=C(NCC1CCN(CCc2ccccc2)CC1)c1cc(-c2ccc(F)cc2F)on1', 'pKi', '6.00 to 7.00'),
  ('COC(=O)c1ccc(CN2CCC(CNC(=O)c3cc(-c4ccc(F)cc4F)on3)CC2)cc1', 'pKi', '≥ 7.00'),
  ('O=C(NCC1CCN(C/C=C/c2ccccc2)CC1)c1nc(-c2ccc(F)cc2F)no1', 'pKi', '6.00 to 7.00'),
  ('O=C(NCC1CCN(C/C=C/c2ccccc2)CC1)c1nnc(-c2ccc(F)cc2F)o1', 'pKi', '≥ 7.00'),
  ('O=C(NCC1CCN(C(=O)C2CCC2)CC1)c1cc(-c2ccc(F)cc2F)on1', 'pKi', '< 5.00');

Observed pKi on NanoLuc-hACKR3 (Homo sapiens) for O=C(NCC1CCN(Cc2ccc(Br)cc2)CC1)c1cc(-c2ccc(F)cc2F)on1 , please.
6.00 to 7.00

Observed pKi on NanoLuc-hACKR3 (Homo sapiens) for Cc1ccc(CN2CCC(CNC(=O)c3cc(-c4ccc(F)cc4F)on3)CC2)cc1 , please.
≥ 7.00

Observed pKi on NanoLuc-hACKR3 (Homo sapiens) for O=C(NCC1CCN(C(=O)C2CCCCC2)CC1)c1cc(-c2ccc(F)cc2F)on1 , please.
< 5.00

Observed pKi on NanoLuc-hACKR3 (Homo sapiens) for COc1cc(CN2CCC(CNC(=O)c3cc(-c4ccc(F)cc4F)on3)CC2)cc(OC)c1OC , please.
6.00 to 7.00

Observed pKi on NanoLuc-hACKR3 (Homo sapiens) for O=C(NCC1CCN(CC2CCCC2)CC1)c1cc(-c2ccc(F)cc2F)on1 , please.
6.00 to 7.00

Observed pKi on NanoLuc-hACKR3 (Homo sapiens) for O=C(NCC1CCN(C2CCCCC2)CC1)c1cc(-c2ccccc2)on1 , please.
< 5.00

Observed pKi on NanoLuc-hACKR3 (Homo sapiens) for O=C(NCC1CCN(C/C=C/c2ccccc2)CC1)c1cnc(-c2ccc(F)cc2F)s1 , please.
≥ 7.00

src = patent US20250170117A1
